B1: tRNA (parent)
chain: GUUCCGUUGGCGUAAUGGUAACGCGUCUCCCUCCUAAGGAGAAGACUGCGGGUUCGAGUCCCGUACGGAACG

Variants of: B1
Assay: yeast fitness relative to wild type (ratio to wild type); higher = fitter; tRNA-Arg(CCU), competitive growth, 37 C, YPD
This sample holds only a part of the variants without activity.
quantity_measured: yeast fitness
Give bare numbers.

| mutant_id | endpoint_result |
| --- | --- |
| C30A C61A A65C | 0.578 |

For each of the items listed, what is its yeast fitness?
1. C5A G48C A57G
2. U35C C66U
3. C34G C60U C61U
4. A40U G51C

output:
1. 0.557
2. 0.781
3. 0.545
4. 0.518

Report yeast fitness for every entry below.
1. U26A G63C A69U
2. U8C A45G
3. U64C A69C

output:
0.527
0.906
0.983

Please go through the list and note yeast fitness for each variant.
1. U2C G12A G18C C33U
2. C60U G67A
3. C5U G50C
4. C24A C61U
5. A15U G48A
6. U7C G38A G58C
7. A43U C60G A70C
8. U7C G23C

output:
1: 0.561; 2: 0.721; 3: 0.699; 4: 0.718; 5: 0.763; 6: 0.648; 7: 0.599; 8: 0.671

Consider the following items and state reported yeast fitness for each.
1. C5U C49U
2. U3A C4U C5U
3. C49U A65C A70G
4. G17C A70C
5. A14C C24A U32G G41C
6. U16A G48C C55G G67C A70U

output:
[0.953, 0.594, 0.768, 0.751, 0.501, 0.604]
